# credit: patent EP4603105A1

# Test system: human lung cancer strain NCI-H441
# Assay type: cell-based
MEASURE NAME: pIC50
Answers are plain numbers, as −log10 of the molar value.

Here is how some compounds turned out for pIC50.
query_smiles=CCCC[C@H]1C(=O)N[C@@H]([C@@H](C)CC)C(=O)N(C)CC(=O)N(C)[C@H]2C/C=C\CCN(C2=O)[C@@H](Cc2ccc(C(F)(F)F)cc2)C(=O)N(C)CC(=O)N[C@@H](CCc2cc(F)c(C(F)(F)F)c(F)c2)C(=O)N2C[C@H](OCC)C[C@H]2C(=O)NC2(CCC2)C(=O)N(C)[C@@H](C2CCCC2)C(=O)N(C)[C@H](C(=O)N(CC)CC)CC(=O)N1C result_number=8.12
query_smiles=CC[C@H](C)[C@@H]1NC(=O)[C@H](CC)N(C)C(=O)C[C@@H](C(=O)N(C)C)N(C)C(=O)[C@H](C2CCCC2)N(C)C(=O)C2(CCC2)NC(=O)[C@@H]2CCCN2C(=O)[C@H](CCc2cc(C)c(Cl)c(C)c2)NC(=O)CN(C)C(=O)[C@H](Cc2ccc(C(F)(F)F)cc2)N2CC/C=C\C[C@@H](C2=O)N(C)C(=O)CN(C)C1=O result_number=6.97

Please look at the following compound next.
Prompt: Recall the reported pIC50 of CCO[C@@H]1C[C@H]2C(=O)NC3(CCC3)C(=O)N(C)[C@@H](C(CC)CC)C(=O)N(C)[C@H](C(=O)N(C)C)CC(=O)N(C)[C@@H](CC3CCCC3)C(=O)N[C@@H]([C@@H](C)CC)C(=O)N(C)CC(=O)N(C)[C@H]3C/C=C\CCN(C3=O)[C@@H](Cc3ccc(F)cc3C)C(=O)N(C)CC(=O)N[C@@H](CCc3cc(F)c(C(F)(F)F)c(F)c3)C(=O)N2C1 when tested on human lung cancer strain NCI-H441.
Completion: 7.34

====

Please provide measured pKd for the entries that follow.
# SYSTEM: GDP-bound KRAS wild-type protein (Homo sapiens, UniProt P01116)
# Sequence (P01116 1-188 isoform P01116-2): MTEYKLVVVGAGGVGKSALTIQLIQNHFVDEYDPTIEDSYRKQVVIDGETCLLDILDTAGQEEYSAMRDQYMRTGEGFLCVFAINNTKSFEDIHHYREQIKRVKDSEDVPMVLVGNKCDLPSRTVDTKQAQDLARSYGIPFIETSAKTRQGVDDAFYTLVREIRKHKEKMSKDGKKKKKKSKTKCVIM
# METHOD: Binding to KRAS by surface plasmon resonance (SPR), dissociation constant KD
# TEST PARAMETERS: Single Cycle Kinetics
One number for each entry, as −log10 of the molar value.

Fill in pKd for each of the 6 molecules listed.
1. CCO[C@@H]1C[C@H]2C(=O)NC3(CCC3)C(=O)N(C)[C@@H](C3CCCC3)C(=O)N(C)[C@H](C(=O)N3CCOCC3)CC(=O)N(C)[C@@H](Cc3cccc(F)c3)C(=O)N[C@@H]([C@@H](C)CC)C(=O)N(C)CC(=O)N(C)[C@H]3CCCCCN(C3=O)[C@@H](Cc3ccc(C(F)(F)F)cc3)C(=O)N(C)CC(=O)N[C@@H](CCc3cc(F)c(C(F)(F)F)c(F)c3)C(=O)N2C1
2. CCO[C@@H]1C[C@H]2C(=O)NC3(CCC3)C(=O)N(C)[C@@H](C3CCCC3)C(=O)N(C)[C@H](C(=O)N(C)C)CC(=O)N(C)[C@@H](CC(C)C)C(=O)N[C@@H]([C@@H](C)CC)C(=O)N(C)CC(=O)N(C)[C@H]3CC(C)=CCN(C3=O)[C@@H](Cc3ccc(C(F)(F)F)cc3)C(=O)N(C)CC(=O)N[C@@H](CCc3cc(F)c(C(F)(F)F)c(F)c3)C(=O)N2C1
3. CCO[C@@H]1C[C@H]2C(=O)NC3(CCC3)C(=O)N(C)[C@@H](C3CCCC3)C(=O)N(C)[C@H](C(=O)N(C)C)CC(=O)N(C)[C@@H](CC)C(=O)N[C@@H]([C@@H](C)CC)C(=O)N(C)CC(=O)N(C)[C@H]3CCCCCN(C3=O)[C@@H](Cc3ccc4ccsc4c3)C(=O)N(C)CC(=O)N[C@@H](CCc3cc(F)c(C(F)(F)F)c(F)c3)C(=O)N2C1
4. CCC[C@H]1C(=O)N[C@@H]([C@@H](C)CC)C(=O)N(C)CC(=O)N(C)[C@H]2C/C=C\CCN(C2=O)[C@@H](Cc2ccc(C(F)(F)F)cc2)C(=O)N(C)CC(=O)N[C@@H](CCc2ccc(C(F)(F)F)c(Cl)c2)C(=O)N2CC3(CC3)C[C@H]2C(=O)NC2(CCC2)C(=O)N(C)[C@@H]([C@@H](C)CC)C(=O)N(C)[C@H](C(=O)N(C)C)CC(=O)N1C
5. CCC[C@H]1C(=O)N[C@@H]([C@@H](C)CC)C(=O)N(C)CC(=O)N(C)[C@H]2C/C=C\CCN(C2=O)[C@@H](Cc2ccc(C(F)(F)F)cc2)C(=O)N(C)CC(=O)N[C@@H](CCc2ccc(C(F)(F)F)c(OC)c2)C(=O)N2C[C@H](OCC)C[C@H]2C(=O)OC2(CCC2)C(=O)N(C)[C@@H](C2CCCC2)C(=O)N(C)[C@H](C(=O)N(C)C)CC(=O)N1C
6. CCO[C@@H]1C[C@H]2C(=O)NC3(CC(C)(C)C3)C(=O)N(C)[C@@H](C3CCCC3)C(=O)N(C)[C@H](C(=O)N(C)C)CC(=O)N(C)[C@@H](CC(C)C)C(=O)N[C@@H]([C@@H](C)CC)C(=O)N(C)CC(=O)N(C)[C@H]3C/C(F)=C\CCN(C3=O)[C@@H](Cc3ccc(C)cc3)C(=O)N(C)CC(=O)N[C@@H](CCc3cc(F)c(C(F)(F)F)c(F)c3)C(=O)N2C1

Completion:
[9.02, 9.42, 9.21, 9.60, 9.85, 9.85]

Hi there! I need pKd for each item below, if you can.
1. CCCC[C@H]1C(=O)N[C@@H]([C@@H](C)CC)C(=O)N(C2CC2)CC(=O)N(C)[C@H]2C/C=C\CCN(C2=O)[C@@H](Cc2ccc(C)cc2)C(=O)N(C)CC(=O)N[C@@H](CCc2ccc(C(F)(F)F)c(OC)c2)C(=O)N2C[C@H](OCC)C[C@H]2C(=O)OC2(CCC2)C(=O)N(C)[C@@H](C2CCCC2)C(=O)N(C)[C@H](C(=O)N(C)C)CC(=O)N1C
2. C#CC[C@H]1C(=O)N[C@@H]([C@@H](C)CC)C(=O)N(C2CC2)CC(=O)N(C)[C@H]2C/C=C\CCN(C2=O)[C@@H](Cc2ccc(C)cc2)C(=O)N(C)CC(=O)N[C@@H](CCc2ccc(C(F)(F)F)c(Cl)c2)C(=O)N2C[C@H](OCC)C[C@H]2C(=O)N(C)C2(CCC2)C(=O)N(C)[C@@H](C2CCCC2)C(=O)N(C)[C@H](C(=O)N(C)C)CC(=O)N1C
3. CCC[C@H]1C(=O)N[C@@H](C2CCCC2)C(=O)N(C)CC(=O)N(C)[C@H]2C/C=C\CCN(C2=O)[C@@H](Cc2ccc(C(F)(F)F)cc2)C(=O)N(C)CC(=O)N[C@@H](CCc2ccc(C(F)(F)F)c(OC)c2)C(=O)N2CC3(CC3)C[C@H]2C(=O)N(C)C2(CCC2)C(=O)N(C)[C@@H]([C@@H](C)CC)C(=O)N(C)[C@H](C(=O)N(C)C)CC(=O)N1C
4. CCC[C@H]1C(=O)N[C@@H]([C@@H](C)CC)C(=O)N(C2CC2)CC(=O)N(C)[C@H]2C/C=C\CCN(C2=O)[C@@H](Cc2ccc(C)cc2)C(=O)N(C)CC(=O)N[C@@H](CCc2cc(F)c(C(F)(F)F)c(F)c2)C(=O)N2CC[C@H](OC)[C@H]2C(=O)N(C)C2(CCC2)C(=O)N(C)[C@@H](C2CCCC2)C(=O)N(C)[C@H](C(=O)N(C)C)CC(=O)N1C
5. CCO[C@@H]1C[C@H]2C(=O)OC3(CCC3)C(=O)N(C)[C@@H](C3CCCC3)C(=O)N(C)[C@H](C(=O)N(C)C)CC(=O)N(C)[C@@H]([C@H](C)OC)C(=O)N[C@@H]([C@@H](C)CC)C(=O)N3CCC[C@H]3C(=O)N(C)[C@H]3C/C=C\CCN(C3=O)[C@@H](Cc3ccc(C(F)(F)F)cc3)C(=O)N(C)CC(=O)N[C@@H](CCc3ccc(C(F)(F)F)c(OC)c3)C(=O)N2C1

Completion:
[8.92, 9.92, 9.04, 9.82, 9.28]
